Values were extracted from paper PMC11131246.

Would you mind telling me the reported IC50 at 24 h of each entry?
# experimental.protocol: Cytotoxicity, CellTiter-Blue cell viability assay
# Type: cell-based
# settings: human; CellTiter-Blue, peptides 0.05–100.0 µM, 24 h; triplicates, three independent cultures; read-out: Cytotoxicity IC50 HEK-293
No end group written: not given here.

Query: Dear colleague, I am looking for the recorded IC50 at 24 h of the following substance: KKKKQPPKPKKPKTQEKKKKQPPKPKR-NH2 [non-BBBpS_1]
Result: > 100 µM

Query: Dear colleague, I am looking for the recorded IC50 at 24 h of the following substance: EEGRLYMRYYSPTTRRYG-NH2 [BBBpS_3]
Result: > 100 µM

====

# experimental.protocol: Biodistribution of 67Ga-radiolabeled peptides
# Design: species or system mouse
# settings: female, CD1, mouse, in vivo, iv, 100 uCi, total radioactivity, Tissue distribution, Heart
Residues, ends and D or L forms follow the SMILES beside them. *: point of attachment. NODAGA = O=C(O)CN1CCN(CC(=O)O)CCN(C(CCC(=O)*)C(=O)O)CC1
measure.name: tissue uptake at 2 min (%ID/g)
Numeric only. Scale: %ID/g

Query: Dear colleague, I am looking for the recorded tissue uptake at 2 min of the following molecule: CC(C)C[C@H](NC(=O)[C@H](Cc1c[nH]c2ccccc12)NC(=O)[C@H](Cc1ccccc1)NC(=O)[C@H](CCC(N)=O)NC(=O)[C@H](C)NC(=O)[C@H](CO)NC(=O)[C@H](CC(=O)O)NC(=O)[C@@H]1CCCN1C(=O)[C@H](CCCNC(=N)N)NC(=O)[C@H](CC(N)=O)NC(=O)CCC(C(=O)O)N1CCN(CC(=O)O)CCN(CC(=O)O)CC1)C(=O)N[C@@H](Cc1c[nH]cn1)C(=O)N[C@@H](Cc1c[nH]cn1)C(N)=O (stereo partly shown) [67Ga-BBBpS_9, metal not drawn] ({NODAGA}-NRPDSAQFWLHH-NH2)
Result: 3.3

Query: Dear colleague, I am looking for the recorded tissue uptake at 2 min of the following molecule: CC[C@H](C)[C@H](NC(=O)[C@H](Cc1c[nH]cn1)NC(=O)CCC(C(=O)O)N1CCN(CC(=O)O)CCN(CC(=O)O)CC1)C(=O)N[C@@H](CCC(N)=O)C(=O)N[C@@H](CC(C)C)C(=O)N[C@@H](CO)C(=O)N1CCC[C@H]1C(=O)N[C@@H](Cc1ccccc1)C(=O)N[C@@H](CO)C(=O)N[C@@H](CCC(N)=O)C(=O)N[C@@H](CO)C(=O)N[C@@H](Cc1c[nH]c2ccccc12)C(=O)N[C@@H](CCCNC(=N)N)C(N)=O (stereo partly shown) [67Ga-BBBpS_5, metal not drawn] ({NODAGA}-HIQLSPFSQSWR-NH2)
Result: 3.8

Query: Dear colleague, I am looking for the recorded tissue uptake at 2 min of the following molecule: CC[C@H](C)[C@H](NC(=O)[C@H](C)NC(=O)CNC(=O)[C@H](CO)NC(=O)[C@H](CCCNC(=N)N)NC(=O)[C@H](Cc1ccc(O)cc1)NC(=O)[C@H](CCCCN)NC(=O)CCC(C(=O)O)N1CCN(CC(=O)O)CCN(CC(=O)O)CC1)C(=O)N[C@H](C(=O)N[C@H](C(=O)NCC(=O)N[C@@H](Cc1ccc(O)cc1)C(N)=O)[C@@H](C)CC)[C@@H](C)O (stereo partly shown) [67Ga-BBBpS_2, metal not drawn] ({NODAGA}-KYRSGAITIGY-NH2)
Result: 3.1

Query: Dear colleague, I am looking for the recorded tissue uptake at 2 min of the following molecule: CC[C@H](C)[C@H](NC(=O)[C@H](C)NC(=O)CNC(=O)[C@H](CCCCN)NC(=O)[C@H](Cc1ccc(O)cc1)NC(=O)[C@H](CCCCN)NC(=O)CCC(C(=O)O)N1CCN(CC(=O)O)CCN(CC(=O)O)CC1)C(=O)N[C@H](C(=O)NCC(=O)N[C@@H](CC(N)=O)C(=O)N[C@H](C(=O)N[C@@H](CCCCN)C(N)=O)[C@@H](C)CC)[C@@H](C)CC (stereo partly shown) [67Ga-BBBpS_1, metal not drawn] ({NODAGA}-KYKGAIIGNIK-NH2)
Result: 3.4
